system: Mycobacterium tuberculosis H37Rv CNCTC My 331/88 (ATCC 27294); test: Antimycobacterial microdilution MABA, M. tuberculosis; format: cell-based; conditions: Mycobacterium tuberculosis, read-out: Mtb MIC, molar concentration
The entries below are paired with their reported MIC.

Solved entries (count: 3):
INSERT INTO assay_data (structure_notation, readout_name, result) VALUES
  ('Cc1ccc(C(=O)Nc2cnc(Cl)cn2)cc1', 'MIC', '25.2 µM'),
  ('O=C(Nc1cnc(Cl)cn1)c1ccccc1O', 'MIC', '50.1 µM'),
  ('CC(=O)Oc1ccccc1C(=O)Nc1cnc(Cl)cn1', 'MIC', '42.9 µM');

Given the compound CCc1ccc(C(=O)Nc2cnc(Cl)cn2)cc1 , what is its reported MIC? 12 µM

----------
readout.name: melting point

Solved entries (count: 2):
INSERT INTO results (structure_notation, result) VALUES
  ('O=C(Nc1cncc(Cl)n1)c1ccc(Cl)cc1', '193.8 to 194.7 °C'),
  ('O=C(Nc1cnc(Cl)cn1)c1cccc(C(F)(F)F)c1', '155.4 to 156.4 °C');

Given the molecule COc1ccccc1C(=O)Nc1cnccn1 , what is its reported melting point? 100.3 to 102.4 °C

Given the molecule O=C(Nc1cnccn1)c1cccc(Cl)c1 , what is its reported melting point? 147.2 to 149.4 °C

Given the molecule Cc1ccc(C(=O)Nc2cnc(Cl)cn2)cc1 , what is its reported melting point? 186.4 to 187.1 °C

Given the molecule O=C(Nc1cnccn1)c1ccccc1Cl , what is its reported melting point? 128.2 to 129.7 °C

Given the molecule O=C(Nc1cncc(Cl)n1)c1ccccc1 , what is its reported melting point? 152.8 to 153.6 °C

Given the molecule CC(=O)Oc1cccc(C(=O)Nc2cnc(Cl)cn2)c1 , what is its reported melting point? 184.1 to 184.6 °C

Given the molecule O=C(Nc1cnc(Cl)cn1)c1ccccc1 , what is its reported melting point? 162.5 to 163.5 °C

Given the molecule O=C(Nc1cnccn1)c1ccc(Cl)cc1 , what is its reported melting point? 182.6 to 184.3 °C

Given the molecule O=C(c1ccc(Cl)cc1)N(C(=O)c1ccc(Cl)cc1)c1cnccn1 , what is its reported melting point? 153.1 to 153.8 °C

----------
The entries below are paired with their reported MIC.
tested on: Staphylococcus aureus H 5996/08 methicillin resistant; test: microbe, parasite or virus in culture; type: cell-based; conditions: Staphylococcus aureus, MRSA, 48 h, read-out: MIC MRSA

INSERT INTO measurements (compound, result) VALUES
  ('O=C(Nc1cnc(Cl)cn1)c1cccc(Cl)c1', '> 125 µM'),
  ('O=C(c1ccc(Cl)cc1)N(C(=O)c1ccc(Cl)cc1)c1cnccn1', '> 125 µM'),
  ('O=C(Nc1cnc(Cl)cn1)c1ccccc1', '250 µM'),
  ('O=C(Nc1cncc(Cl)n1)c1cccc(Cl)c1', '> 125 µM'),
  ('O=C(Nc1cnccn1)c1cccc(Cl)c1', '> 125 µM'),
  ('CCc1ccc(C(=O)Nc2cnc(Cl)cn2)cc1', '> 125 µM'),
  ('Cc1ccc(C(=O)Nc2cnccn2)cc1', '> 500 µM'),
  ('CC(=O)Oc1cccc(C(=O)Nc2cnc(Cl)cn2)c1', '> 125 µM');

Given the compound CC(=O)Oc1ccc(C(=O)Nc2cnc(Cl)cn2)cc1 , what is its reported MIC? > 125 µM

Given the compound O=C(Nc1cnccn1)c1cccc(O)c1 , what is its reported MIC? > 500 µM

Given the compound CC1(C)S[C@@H]2[C@H](NC(=O)Cc3ccccc3)C(=O)N2[C@H]1C(=O)O [Pen, benzylpenicillin, reference compound] , what is its reported MIC? 125 µM

Given the compound CC(=O)Oc1cccc(C(=O)Nc2cnccn2)c1 , what is its reported MIC? > 500 µM

Given the compound O=C(Nc1cnc(Cl)cn1)c1ccc(Cl)cc1 , what is its reported MIC? > 125 µM

Given the compound O=C(Nc1cnccn1)c1ccc(Cl)cc1 , what is its reported MIC? > 125 µM

Given the compound COc1ccccc1C(=O)Nc1cnc(Cl)cn1 , what is its reported MIC? > 125 µM

Given the compound O=C(Nc1cnc(Cl)cn1)c1cccc(O)c1 , what is its reported MIC? > 500 µM

Given the compound COc1ccccc1C(=O)Nc1cncc(Cl)n1 , what is its reported MIC? > 500 µM

Given the compound COc1cccc(C(=O)Nc2cnc(Cl)cn2)c1 , what is its reported MIC? > 500 µM

Given the compound CC(=O)Oc1ccc(C(=O)Nc2cnccn2)cc1 , what is its reported MIC? > 500 µM

Given the compound O=C(Nc1cnc(Cl)cn1)c1ccccc1Cl , what is its reported MIC? > 500 µM

Given the compound O=C(Nc1cnc(Cl)cn1)c1ccc(Br)cc1 , what is its reported MIC? > 125 µM
